- System: KB-3-1
- experimental.details: Cytotoxic Profiling of Annotated Libraries Using Quantitative High-Throughput Screening (AID 1296008); also: % is scaled to controls: 0 for no effect and ±100 for the full control effect; nearly all actives have a fitted effect of over 60% in size
- run.conditions: Five cell lines viability, CellTiter-Glo ATP luminescence, 48-72 h; hits give low values
Results filed as inconclusive are left out.
measured.endpoint: max response (%)
Numeric only. Scale: %

Answered cases to consult:
compound	max response [%]
Cc1cccc(C)c1NC(=O)c1ccccc1C(=O)O	-0.148
CCOC(=O)Nc1ccc2c(c1)N(C(=O)CCN1CCOCC1)c1ccccc1S2	0.404
CCN1CCN(C(=O)N[C@@H](C(=O)N[C@@H]2C(=O)N3C(C(=O)O)=C(CSc4nnnn4C)CS[C@H]23)c2ccc(O)cc2)C(=O)C1=O	-4.94
N#C/C(=C1\SCC(c2ccccc2Cl)S1)n1ccnc1 (stereo not drawn)	0.837
CC(=O)Nc1ccc(CC(=O)O)cc1	-17.4
CC(=O)N[C@@H](CCC(=O)O)C(=O)O	-11.1

Task item: Reported max response, compound `O=C(CN1CCN(Cc2ccc3c(c2)OCO3)CC1)N1c2ccccc2Sc2ccccc21` : ____
Reply: 6.91

Task item: Reported max response, compound `C=C[C@H]1CN2CC[C@H]1C[C@@H]2[C@@H](O)c1ccnc2ccc(OC)cc12` : ____
Reply: -6.93
